# Tested on: MCF7
# Experiment: Cell cycle arrest in human MCF7 cells assessed as accumulation at S phase at 4 uM after 24 hrs using propidium iodide staining by flow cytometry
# Assay type: functional

# Structure smiles string, Activity (%)
rows = [
    ("COc1cc2c(cc1OCCCCOc1ccc(-c3cc4ccccc4c4ccccc34)cc1)N=C[C@@H]1CCCN1C2=O", 5.5),
    ("COc1cc2c(cc1OCCCOc1ccc(-c3cc4ccccc4c4ccccc34)cc1)N=C[C@@H]1CCCN1C2=O", 13.05),
    ("COc1cc2c(cc1O)N=C[C@@H]1CCCN1C2=O", 14.16),
    ("COc1cc2c(cc1OCCCCCOc1ccc(-c3cc4ccccc4c4ccccc34)cc1)N=C[C@@H]1CCCN1C2=O", 4.86),
]

====

Recorded Activity by entry
# Test system: MCF7
# Experiment: Cell cycle arrest in human MCF7 cells assessed as accumulation at G2/M phase at 2 uM after 24 hrs using propidium iodide staining by flow cytometry
# Type: functional
Measure: Activity (%)

# Structure smiles string, U, Quantitative result
data = [
    ("COc1cc2c(cc1OCCCCCOc1ccc(-c3cc4ccccc4c4ccccc34)cc1)N=C[C@@H]1CCCN1C2=O", "%", 2.61),
    ("COc1cc2c(cc1OCCCCOc1ccc(-c3cc4ccccc4c4ccccc34)cc1)N=C[C@@H]1CCCN1C2=O", "%", 4.25),
    ("COc1cc2c(cc1O)N=C[C@@H]1CCCN1C2=O", "%", 13.1),
    ("COc1cc2c(cc1OCCCOc1ccc(-c3cc4ccccc4c4ccccc34)cc1)N=C[C@@H]1CCCN1C2=O", "%", 10.7),
]
